# SYSTEM_TESTED: human RARγ LBD (Homo sapiens, UniProt P13631)
# Sequence (P13631 185-419 limits assumed): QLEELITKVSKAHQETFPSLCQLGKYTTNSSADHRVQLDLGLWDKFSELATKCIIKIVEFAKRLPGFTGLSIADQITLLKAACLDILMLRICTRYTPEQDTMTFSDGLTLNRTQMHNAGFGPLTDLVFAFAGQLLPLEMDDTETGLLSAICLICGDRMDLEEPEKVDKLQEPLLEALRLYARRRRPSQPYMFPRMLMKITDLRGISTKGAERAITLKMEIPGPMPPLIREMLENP
# Sequence (P19793 227-458 partner limits assumed): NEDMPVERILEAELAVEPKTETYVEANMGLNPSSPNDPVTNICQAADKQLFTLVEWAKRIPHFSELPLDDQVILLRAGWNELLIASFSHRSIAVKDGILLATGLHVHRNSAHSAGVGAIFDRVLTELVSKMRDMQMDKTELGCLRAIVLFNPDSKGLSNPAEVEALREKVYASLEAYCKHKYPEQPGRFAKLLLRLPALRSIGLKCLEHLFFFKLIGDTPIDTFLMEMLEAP
# ASSAY_TEXT: RARγ SRC-2 coactivator recruitment assay (agonist mode)
# Format: biochemical
# MEASUREMENT_PARAMETERS: maximum stimulation relative to fitted top of TTNPB standard curve
ASSAY_ENDPOINT: % Stimulation (%)
Give just the numeric value; % need not be written.

Reported % Stimulation for CN1CCN(C(=O)c2ccc(-n3nc(-c4ccc(C(=O)O)cc4)cc3-c3cc(C(C)(C)C)cc(C(C)(C)C)c3)cc2)CC1 : what is it?
0.2

Reported % Stimulation for CC(C)(C)c1cc(-c2cc(-c3ccc(C(=O)O)cc3)nn2-c2ccc(C(=O)N3CCOCC3)cc2)cc(C(C)(C)C)n1 : what is it?
0.6

Reported % Stimulation for CC(C)(C)c1cc(-c2cc(-c3ccc(C(=O)O)cc3)nn2-c2ccc(S(C)(=O)=O)cc2)cc(C(C)(C)C)c1 : what is it?
−3

Reported % Stimulation for CC(C)Sc1cc(-c2cc(-c3ccc(C(=O)O)cc3)nn2-c2ccc(C(=O)N(C)C)cc2)cc(C(C)(C)C)c1 : what is it?
8.4
